System: SR
Assay: NCI tumour cell line growth inhibition, 48 h
Calls of active or inactive are those of the source. Rule as the data show it: active = GI50 up to about 1.1 µM and inactive = higher.
value kind: GI50

{"columns": ["molecule", "GI50"],
 "data": [
  ["COc1cc(/C=C2\\CN(C)CC3=C2N=C(S)NC3c2cc(OC)c(OC)c(OC)c2)cc(OC)c1OC (stereo unspecified)", "> 100 µM (inactive)"],
  ["COC(=O)C1=C(O)CCCC(C2CCCCC(=O)C2C(=O)OC)=C1 (stereo unspecified)", "24.7 µM (inactive)"],
  ["OC(c1cc2ccc(C(F)(F)F)cc2c2cc(C(F)(F)F)ccc12)C1CCCCN1 (stereo unspecified)", "2.38 µM (inactive)"],
  ["CNS(=O)(=O)NN(C)S(=O)(=O)c1ccc2ccccc2c1", "> 100 µM (inactive)"],
  ["Cc1cc2c(cc1C)NC1=C(O)C(c3c[nH]c4ccc(COc5ccccc5)cc34)OC1=N2 (stereo unspecified)", "65.9 µM (inactive)"]
]}

Look up SR data: GI50 of `CC(=O)Oc1cccc2c1C(=O)CCCC2` , then report it. > 100 µM (inactive)

Look up SR data: GI50 of NC(=O)C(NC=O)c1ccccc1 (stereo unspecified) , then report it. > 100 µM (inactive)

Look up SR data: GI50 of `CCN(CC)C(=O)c1cccc2c(OC)ccc(OC)c12` , then report it. > 100 µM (inactive)
